Data credit: paper PMC2933939

condition-details: Half-life (minutes) n2, n2
Non-standard residues stand in square brackets, D forms with d. Residues, ends and D or L forms follow the SMILES beside them. *: point of attachment. dNMeF = CN[C@H](Cc1ccccc1)C(=O)O; Cha = N[C@@H](CC1CCCCC1)C(=O)O; Bn = c1ccc(C*)cc1
readout: half-life (min)

INSERT INTO results (compound, readout, units_of_measure, readout_number) VALUES
  ('CC(C)[C@H]1NC(=O)[C@@H](Cc2ccccc2)N(C)C(=O)[C@H](Cc2ccccc2)NC(=O)[C@H](COCc2ccccc2)NC(=O)[C@H](CC2CCCCC2)NC1=O [Compound 19, Phe-N-Me-D-Phe-D-Val-Cha-Ser(Bn)] (cyclo([Cha]S(Bn)F[dNMeF][dV]))', 'half-life', 'min', 30);
